Biological target: WWP1 (Homo sapiens, UniProt Q9H0M0)
Construct: GST-TEV (N, cleaved yes); made in house; host or cells: Escherichia coli BL21 (DE3)
Assay: Naive Library Presenter Screening (phage, NGS), WWP1 (construct not given)
Type: binding
Settings: WWP1 target concentration 1000 nM, first column
Numbered stars: 1 amine (or outer) side, 2 acyl side, 3 side chain; on linkers, the order of the positions; unused ones are H or OH. Bridge positions count the residues as written; N and C are the ends. Ends that are not written are not given here. Phenylene(1,4-NHCOCH2)2 = O=C(C[*:1])Nc1ccc(NC(=O)C[*:2])cc1
experimental-endpoint: interaction data at Target Concentration 1000
Reply: number alone, nothing else.

Look up and state reported interaction data at Target Concentration 1000 for DPAIMSCMYAAEVCRVL (linker 7-14 via Phenylene(1,4-NHCOCH2)2)
183

Look up and state reported interaction data at Target Concentration 1000 for DPATETCAQAAVLCHSD (linker 7-14 via Phenylene(1,4-NHCOCH2)2 (inferred); not fully specified (C-terminus))
519

Look up and state reported interaction data at Target Concentration 1000 for DPAMIACSHAAQMCHWS (linker 7-14 via Phenylene(1,4-NHCOCH2)2)
275
